Settings: 310.15 K; 100 kPa; Liquid; Vibrating tube method
Endpoint: mass density (kg/m3)
Return type: number; implicit unit kg/m3.

given_smiles=CC[N+](CCO)(CCO)CCO.O=S(=O)([N-]S(=O)(=O)C(F)(F)F)C(F)(F)F endpoint_unit=kg/m3 number=1519.2
given_smiles=CC[N+](C)(C)CCCO.O=S(=O)([N-]S(=O)(=O)C(F)(F)F)C(F)(F)F endpoint_unit=kg/m3 number=1452.9
given_smiles=CCCC[N+](C)(C)CC.O=S(=O)([N-]S(=O)(=O)C(F)(F)F)C(F)(F)F endpoint_unit=kg/m3 number=1361.1

mass density reported for this compound C[N+](CCO)(CCO)CCO.O=S(=O)([N-]S(=O)(=O)C(F)(F)F)C(F)(F)F : 1556

---

Each record here notes measured viscosity.
Details: 328.15 K; 100 kPa; Liquid; Concentric cylinders viscometry
± gives the expanded uncertainty stated by the source.
A complete answer gives the number followed by the unit.

Below: 5 compounds and their reported viscosity.
given_smiles=CC[N+](C)(C)CCCO.O=S(=O)([N-]S(=O)(=O)C(F)(F)F)C(F)(F)F endpoint=viscosity result="40.8 ± 1.7 mPa·s"
given_smiles=C[N+](CCO)(CCO)CCO.O=S(=O)([N-]S(=O)(=O)C(F)(F)F)C(F)(F)F endpoint=viscosity result="95.6 ± 3.9 mPa·s"
given_smiles=CC[N+](C)(C)CCOC.O=S(=O)([N-]S(=O)(=O)C(F)(F)F)C(F)(F)F endpoint=viscosity result="20.6 ± 0.8 mPa·s"
given_smiles=CCCC[N+](C)(C)CC.O=S(=O)([N-]S(=O)(=O)C(F)(F)F)C(F)(F)F endpoint=viscosity result="28.8 ± 1.2 mPa·s"
given_smiles=CC[N+](CCO)(CCO)CCO.O=S(=O)([N-]S(=O)(=O)C(F)(F)F)C(F)(F)F endpoint=viscosity result="122 ± 5.1 mPa·s"

Here is the next item to consider.
Reported viscosity ( CCCC[N+](CCO)(CCO)CCO.O=S(=O)([N-]S(=O)(=O)C(F)(F)F)C(F)(F)F ) = 137.7 ± 5.8 mPa·s

---

# Lookup of reported mass density keyed by entry
Details: 301.15 K; 100 kPa; Liquid; Vibrating tube method
Form entry: value (kg/m3) — number only.

given_smiles=CC[N+](C)(C)CCOC.O=S(=O)([N-]S(=O)(=O)C(F)(F)F)C(F)(F)F endpoint="mass density" number=1428.1
given_smiles=CCCC[N+](C)(C)CC.O=S(=O)([N-]S(=O)(=O)C(F)(F)F)C(F)(F)F endpoint="mass density" number=1369
given_smiles=CC[N+](CCO)(CCO)CCO.O=S(=O)([N-]S(=O)(=O)C(F)(F)F)C(F)(F)F endpoint="mass density" number=1527.1

Pending molecule:
Short answer for CC[N+](C)(C)CCCO.O=S(=O)([N-]S(=O)(=O)C(F)(F)F)C(F)(F)F : mass density was 1460.8

---

Below: a set of entries, each annotated with reported mass density.
Settings: 330.15 K; 100 kPa; Liquid; Vibrating tube method
Number only, in kg/m3; omit the unit.

Examples with their reported mass density follow.
given_smiles=CC[N+](C)(C)CCOC.O=S(=O)([N-]S(=O)(=O)C(F)(F)F)C(F)(F)F number=1401.3
given_smiles=CCCC[N+](CCO)(CCO)CCO.O=S(=O)([N-]S(=O)(=O)C(F)(F)F)C(F)(F)F number=1428.9

Measured mass density of CC[N+](CCO)(CCO)CCO.O=S(=O)([N-]S(=O)(=O)C(F)(F)F)C(F)(F)F : 1501.8

From: the NIST ThermoML archive (doi:10.1021/acs.jced.9b00442)
